# TEST_METHOD_NOTES: Rat pharmacokinetics after IA injection (plasma, knee joint)
# Format: in vivo, Sprague Dawley rats
# STATED_CONDITIONS: Sprague Dawley, rat, bone, other: intra-articular injection; rats, single IA, 9 μg/knee, Day 180; read-out: Formula (I) concentration, Bone
OBSERVABLE: concentration at 180 day (ng/g)
Numeric answer only, unit ng/g assumed.

response.value for CC(C)CC(=O)Nc1cncc(-c2ccc3[nH]nc(-c4nc5c(-c6cccc(F)c6)cncc5[nH]4)c3c2)c1 (field: concentration at 180 day) = 67

###

# TEST_METHOD_NOTES: Solubility of the starting solid by the gravimetric method
# Assay type: physicochemical
# STATED_CONDITIONS: organic solvent or mixture, thermodynamic from solid; IPA; RT; read-out: Solubility at RT
OBSERVABLE: solubility
Write the numeric value and append its unit.

response.value for CC(C)CC(=O)Nc1cncc(-c2ccc3[nH]nc(-c4nc5c(-c6cccc(F)c6)cncc5[nH]4)c3c2)c1 [starting solid] (field: solubility) = 2 mg/mL
